subject.of.test: Peroxisome proliferator-activated receptor gamma (Homo sapiens)
test.name: Transactivation of Gal4-fused human PPARgamma transfected in COS7 cells co-transfected with pGAL5-TK-pGL3 and pRennilla-CMV assessed as maximum intrinsic activation at 10 uM incubated for 39 hrs by dual luciferase reporter assay relative to pioglitazone
Format: cell-based
experimental.endpoint: Intrinsic activity (%)
The reply should contain only the number, in %.

Sample answers from the record:
>>> print(df.to_string())
                                smiles_text  experimental_endpoint  result_number
0  CCCc1nc2c(O)cccc2n1Cc1ccc(-c2ccccc2C(N)=O)cc1     Intrinsic activity           20.5
1  CCCc1nc2ccccc2n1Cc1ccc(-c2ccccc2C(N)=O)cc1     Intrinsic activity           39.5
2  CCCc1nc2c(C)cccc2n1Cc1ccc(-c2ccccc2C(N)=O)cc1     Intrinsic activity           19.6

We next turn to a different compound, shown below.
# compound CCCc1nc2c(C(F)(F)F)cccc2n1Cc1ccc(-c2ccccc2C(N)=O)cc1 ; its Intrinsic activity = 19.5
